- PROCEDURE_SUMMARY: gradient 5% acetonitrile 3 min, to 50% in 2 min, to 85% in 15 min, held 3 min, 100 µL/min
- RUN_CONDITIONS: column: Zorbax Extend-C18 2.1 x 50 mm; eluents: water / acetonitrile, 0.1% formic acid
Please assign a class to every record based on measured RP-LC retention time, with ranges bottom end: < 700 s; midrange: ≥ 700 s and < 900 s; top end: ≥ 900 s

Dear colleague, I would appreciate it if you could identify the bin for CCOc1ccc(OCC)c(NC(=O)C2CC(=O)N(c3cccc(NC(C)=O)c3)C2)c1 (centres undefined) and reply at your convenience.
midrange

Dear colleague, I would appreciate it if you could identify the bin for `Cc1c(CN2CCC(N(C(=O)NCCc3ccccc3)C3CCOCC3)CC2)cnn1C` and reply at your convenience.
bottom end

Dear colleague, I would appreciate it if you could identify the bin for `CN(C)S(=O)(=O)c1ccc(-c2nnc(NC(=O)c3ccc4ncsc4c3)o2)cc1` and reply at your convenience.
bottom end

For the next question, use this molecule.
Dear colleague, I would appreciate it if you could identify the bin for `O=S(=O)(c1cccc(-c2nnc(-c3ccccc3Br)o2)c1)N1CCCCC1` and reply at your convenience.
top end

---

- PROCEDURE_SUMMARY: gradient 5% acetonitrile 3 min, to 50% in 2 min, to 85% in 15 min, held 3 min, 100 µL/min
- RUN_CONDITIONS: column: Zorbax Extend-C18 2.1 x 50 mm; eluents: water / acetonitrile, 0.1% formic acid
Provide the recorded RP-LC retention time for the entries that follow.
One number for each entry, in s.

Some solved entries appear below for comparison.
# lookup: RP-LC retention time of `O=C(CCc1conc1-c1ccccc1)NCc1ccc2c(c1)OCO2`
806

# lookup: RP-LC retention time of `O=C(CN1CC=C(c2cnn(-c3ccc(F)cc3)c2)CC1)N1CCN(c2ccccn2)CC1`
566

# lookup: RP-LC retention time of `CC(C)c1ccc(NC(=O)C2CCN(S(=O)(=O)c3cc(C(=O)N(C)C)cs3)CC2)cc1`
958

Please state, for each entry, its recorded RP-LC retention time.
1. COc1ccccc1C1(CNC(=O)Nc2cccc(Cl)c2)CCOCC1
2. COc1ccc(NC(=O)Cn2nc3c(Oc4ccccc4Cl)nccn3c2=O)cc1
3. CCn1c(=O)n(Cc2ccccc2Cl)c(=O)c2cnc(-c3ccc(OC)cc3)nc21

867
859
1010

Please state, for each entry, its recorded RP-LC retention time.
1. COc1ccc(CCC(=O)N2CCC3(C2)C(=O)Nc2ccc(OC)cc23)cc1 (stereo not drawn)
2. CCN1CCCn2cc(S(=O)(=O)Nc3cccc(C)c3C)cc2C1=O
3. Cc1ccc(-n2ccc(=O)c(-c3nc(-c4cccc(F)c4)no3)n2)cc1
4. COc1ccc(C(=O)CSc2nnc3sc4ccccc4n23)cc1OC
5. O=C(NCCc1n[nH]c(Cc2cccc(F)c2)n1)c1ccc2c(c1)OCO2
6. CCc1noc(NC(C)=O)c1-c1ccc(C)c(S(=O)(=O)N2CCN(c3ccccc3)CC2)c1

[751, 768, 928, 768, 673, 964]

Please state, for each entry, its recorded RP-LC retention time.
1. CC1Oc2ccc(S(=O)(=O)N3CCC(C(=O)NCc4ccccc4Cl)CC3)cc2NC1=O (stereo not drawn)
2. COc1ccc(C2C(C(=O)N3CCCC3)c3cc(OC)c(OC)cc3C(=O)N2C)cc1OC (stereo not drawn)
3. COc1ccc2c(c1)C=C(C(=O)NCc1ccccc1)C=CO2
4. Cc1[nH]nc(-c2c(C)sc(C)c2S(=O)(=O)NCCC2=CCCCC2)c1C
5. CCNC(=O)N1C[C@@H]2CCCN3CCC[C@@H]([C@H]23)[C@H]1CCCC(=O)NCC1CC1
6. CC(C)CC(=O)N1CCC2(CC1)c1nccn1-c1ccccc1CN2C
7. CCOC(=O)c1ccccc1NC(=O)N1CCOc2ccc(C)cc21
8. COc1ccc(-c2c(C)noc2NC(C)=O)cc1S(=O)(=O)Nc1ccc(C)cc1C

1. 816
2. 660
3. 940
4. 1210
5. 569
6. 580
7. 1220
8. 804

Please state, for each entry, its recorded RP-LC retention time.
1. O=C(NCC1CCS(=O)(=O)C1)c1ccc2nsnc2c1 (stereo not drawn)
2. O=C(Cc1ccccc1)N1CCCC1c1nc(-c2ccccc2Cl)no1 (stereo not drawn)
3. CCOc1ccccc1-c1c(C#N)c(N)nc2c1c(=O)n(C)c(=O)n2C
4. COCCNC(=O)c1ccc2c(c1)CCCN2S(=O)(=O)c1ccccc1

609
994
786
767

Please state, for each entry, its recorded RP-LC retention time.
1. CC1=C(c2cccc(Cl)c2)S(=O)(=O)N=C1N1CCCN(C(=O)NCC(C)C)CC1
2. Cc1ccc(NC(=O)NC2CCN(c3ccc(F)c(C)c3)C2=O)cc1C (stereo not drawn)
3. O=C(NC1CCCC1)C1CCN(Cc2noc(-c3ccc(F)cc3)n2)CC1

[814, 899, 647]

Please state, for each entry, its recorded RP-LC retention time.
1. Cc1noc(-c2nc(-c3ccccc3F)no2)n1
2. COc1ccccc1C1(CNC(=O)Nc2ccccc2F)CCOCC1

1: 990; 2: 810

Please state, for each entry, its recorded RP-LC retention time.
1. COCCN1C(=O)CCC2(C(=O)Nc3cc(OC)cc(OC)c3)CCCC=C12 (stereo not drawn)
2. COc1ccc(-c2noc(Cn3cnc4c(cnn4-c4ccc(OC)cc4)c3=O)n2)cc1
3. COc1ccc2cc(C(=O)N3CC(n4cc(COCC5CC5)nn4)C3)[nH]c2c1
4. Cc1nn(C(C)C(=O)N2CCC(N3CCCCC3)CC2)c(=O)c2nn(-c3ccccc3)c(C)c12 (stereo not drawn)
5. Cn1c(C(=O)N2CCCC(C(=O)NCCc3ccc(S(N)(=O)=O)cc3)C2)cc2sccc21 (stereo not drawn)
6. Cn1nc(-c2nnc(-c3ccc(F)cc3)o2)c2c1CCN(S(=O)(=O)c1cccc(F)c1)C2

[763, 982, 745, 622, 693, 963]

Please state, for each entry, its recorded RP-LC retention time.
1. CN(C)C(=O)c1cc2c(s1)CCC(C(=O)Nc1ccc3c(c1)OCCO3)C2 (stereo not drawn)
2. COc1ccc(NC(=O)N2CCC3(CC2)NC(=O)c2ccc(F)cc2N3C)cc1
3. O=C(NCC1(c2cccs2)CCOCC1)C(=O)NC1CCCC1

[764, 727, 775]

---

Provide the recorded RP-LC retention time for the entries that follow.
- PROCEDURE_SUMMARY: gradient 5% acetonitrile 3 min, to 50% in 2 min, to 85% in 15 min, held 3 min, 100 µL/min
- RUN_CONDITIONS: column: Zorbax Extend-C18 2.1 x 50 mm; eluents: water / acetonitrile, 0.1% formic acid
Answers are plain numbers, in s.

Some solved entries appear below for comparison.
# lookup: RP-LC retention time of CC1(C)C(=O)NCCN1C(=O)C1COc2ccccc2O1 (stereo not given)
628

# lookup: RP-LC retention time of `CCCN1CCN(C(=O)CCC(=O)N2CCc3c(c(C(=O)N4CCCC4)nn3C)C2)CC1`
577

# lookup: RP-LC retention time of CCc1nc(-c2csc(S(=O)(=O)N3CCCC(C(=O)Nc4cccc(C)c4C)C3)c2)no1 (stereo not given)
1060

# lookup: RP-LC retention time of `COc1ccc(-n2ncc3c(NC4CC4)ncnc32)cc1`
619

# lookup: RP-LC retention time of `C=CC(C)(C)c1cc(/C=C/C(=O)c2ccc(O)cc2)c(OC)cc1O`
903

Please state, for each entry, its recorded RP-LC retention time.
1. CCn1cnc(S(=O)(=O)N2CCC(C(=O)Nc3cc(C)ccc3OC)CC2)c1
2. Cc1cc(C)n(-c2ccnc(NCCc3cccs3)n2)n1
3. CCN(CC)S(=O)(=O)c1cc(-c2nnc(-c3ccc(OC)cc3)o2)ccc1Cl
4. Cc1noc(/C=C\c2ccc(S(=O)(=O)N3CCCCC3C)cc2)c1NC(=O)C1CC1 (stereo not given)
5. O=C(NCC1CCN(c2ncccn2)CC1)C(=O)Nc1ccon1
6. C[C@H](NCc1ccc(OCc2cccc(F)c2)cc1)C(N)=O
7. Cc1cccc(NC(=O)Cn2c(C)nc3onc(C)c3c2=O)c1C

[674, 836, 1140, 938, 614, 708, 861]

Please state, for each entry, its recorded RP-LC retention time.
1. COc1ccc(C)c2sc(NS(=O)(=O)c3ccc(C)cc3)nc12
2. COc1cc(CNC(=O)C2CC(=O)N(c3ccc4oc(C)nc4c3)C2)cc(OC)c1 (stereo not given)
3. Cc1nc2cc(N3CCCC(C(=O)NCc4ccccc4)C3)cnc2nc1C (stereo not given)

[870, 687, 705]

Please state, for each entry, its recorded RP-LC retention time.
1. O=C(Nc1ccc2c(c1)OCCO2)c1coc(NC(=O)C2CC2)n1
2. CCCNC(=O)C1CCN(c2ccc(SCC(=O)Nc3c(C)cccc3Cl)nn2)CC1

643
1160

Where these numbers come from: the METLIN SMRT retention time set (Domingo-Almenara et al. 2019)
